System: Vero E6 infected with SARS-CoV-2
Assay: inhibition of SARS-CoV-2 cytopathic effect; higher = more antiviral protection, active = above 15
Conditions: 8.33 nM; 48 h
Catalogue of inhibition of SARS-CoV-2 cytopathic effect readings, one per entry.
endpoint: inhibition of SARS-CoV-2 cytopathic effect (%)

molecule: Nc1ccc(C(=O)O)c(O)c1 [aminosalicylate]
units text: %
measured number: -0.82

molecule: Cc1cccc(NC(=O)c2ccc(C(F)(F)F)cc2C(=O)O)n1
units text: %
measured number: 0.28

molecule: CC1(C)CCC[C@]2(C)[C@H]3CC(=O)O[C@]3(C)CC[C@@H]12 [Sclareolide (Norambreinolide)]
units text: %
measured number: 3.53

molecule: COc1ccc2[nH]c3c(-c4cccc5ccccc45)nccc3c2c1
units text: %
measured number: 0.26

molecule: O=[N+]([O-])c1ccc2nc(COCc3nc4ccc([N+](=O)[O-])cc4[nH]3)[nH]c2c1
units text: %
measured number: -1.65

molecule: CO[C@H]1C[C@H](O[C@H]2[C@H](C)O[C@@H](O[C@@H]3/C(C)=C/C[C@@H]4C[C@@H](C[C@]5(C=C[C@H](C)[C@@H](C6CCCCC6)O5)O4)OC(=O)[C@@H]4C=C(C)[C@@H](O)[C@H]5OC/C(=C\C=C\[C@@H]3C)[C@]54O)C[C@@H]2OC)O[C@@H](C)[C@@H]1O
units text: %
measured number: 1.22

molecule: C=C1CC[C@H](O)C/C1=C/C=C1\CCC[C@]2(C)[C@@H]([C@H](C)CCCC(C)(C)O)CC[C@@H]12
units text: %
measured number: -2.15

molecule: CS(=O)(=O)c1ccc(-c2cc(Br)sc2-c2ccc(F)cc2)cc1
units text: %
measured number: -0.45

molecule: O=S1(=O)CCN(CN2CCS(=O)(=O)NC2)CN1
units text: %
measured number: 2.04

###

Tested on: Vero E6 infected with SARS-CoV-2
Experiment: inhibition of SARS-CoV-2 cytopathic effect; higher = more antiviral protection, active = above 15
Conditions: 8.33 nM; 48 h
Readings of inhibition of SARS-CoV-2 cytopathic effect for the listed compounds
endpoint: inhibition of SARS-CoV-2 cytopathic effect (%)

compound: C=CCN1CC[C@]23c4c5ccc(O)c4O[C@H]2/C(=N/NC(=O)c2ccccc2)CC[C@@]3(O)[C@H]1C5 [naloxone-benzoylhydrazone]
measured number: 0.97
//
compound: CC(C)[C@H](CO)Nc1nc(Nc2cccc(Cl)c2)c2ncn(C(C)C)c2n1
measured number: -0.55
//
compound: CC(C)(CC(=O)N1CCCC1)NCC(=O)N1C[C@@H](F)C[C@H]1C#N
measured number: 0.33
//
compound: Cc1sc(C)c(C(=O)NC2(c3ccc(C(=O)O)cc3)CC2)c1Cc1ccc(C(F)(F)F)cc1
measured number: -0.56
//
compound: Cc1cc(Nc2nc(N[C@@H](C)c3ncc(F)cn3)ncc2Cl)[nH]n1
measured number: -0.46
//
compound: Cc1cc(NC(=O)Nc2ccc(F)c(F)c2)n(-c2ccccc2)n1
measured number: -1.46
//
compound: Cc1cccc(Nc2nc(-c3ccncc3)cs2)c1
measured number: -0.51
//
compound: CCC(C/C=C/c1ccccc1)(c1ccccc1)N(C)CC1CC1 (configuration not stated)
measured number: 0.01
//
compound: CC(C)C[C@@H](NC(=O)[C@H](Cc1ccccc1)NC(=O)CNC(=O)[C@@H](C)NC(=O)[C@@H](N)Cc1ccc(O)cc1)C(=O)O
measured number: 3.3
//
compound: C[C@H](N[C@@H](CCc1ccccc1)C(=O)O)C(=O)N1Cc2ccccc2C[C@H]1C(=O)O
measured number: -0.93
//
compound: CC(C)[C@@]1(NC(=O)[C@@H]2C[C@@H]3c4cccc5[nH]cc(c45)C[C@H]3N(C)C2)O[C@@]2(O)[C@@H]3CCCN3C(=O)[C@H](Cc3ccccc3)N2C1=O [dihydroergocristine]
measured number: -0.59
//
compound: NP(N)(=O)NC(=O)c1ccc(F)cc1 [flurofamide]
measured number: -1.42
//
compound: CC(C)=CCC/C(C)=C/CC/C(C)=C/CC[C@]1(C)CCc2cc(O)cc(C)c2O1
measured number: -1.44
//
compound: CN[C@@H](C)CCC=C(C)C [isometheptene-mucate]
measured number: 2.18
//
compound: O=C1c2ccccc2C(=O)C1c1ccccc1
measured number: -1.11
//
compound: COc1cc(C[C@H]2c3cc(OC)c(OC)cc3CCN2C)c(Oc2cc3c(cc2OC)-c2c(OC)c(OC)cc4c2[C@H](C3)N(C)CC4)cc1OC
measured number: 1.21
//
compound: COC(=O)N1CCN(Cc2cccc(NC(=O)Nc3ccc(C)nc3)c2F)CC1
measured number: 0.93

###

Test system: Vero E6 infected with SARS-CoV-2
Assay: inhibition of SARS-CoV-2 cytopathic effect; higher = more antiviral protection, active = above 15
Conditions: 10000 nM; 48 h
endpoint: inhibition of SARS-CoV-2 cytopathic effect (%)

compound: N=C(N)NCCC[C@H](NC(=O)c1sccc1NS(=O)(=O)c1cccc2nsnc12)C(=O)O
measured number: 1.98
//
compound: CNCCc1ccc(O)c(O)c1 [deoxyepinephrine]
measured number: -0.83
//
compound: N#CCNC(=O)c1ccc(-c2ccnc(Nc3ccc(N4CCOCC4)cc3)n2)cc1
measured number: -6.6
//
compound: Cc1ccccc1C(C(=O)NC1CCCCC1)N(C(=O)Cn1ccnc1C)c1cccc(F)c1 (centres undefined)
measured number: -0.96
//
compound: CCN(CC)CCCCN1c2ccccc2Oc2ccc(Cl)cc21
measured number: 40.9
//
compound: CC(=O)S[C@@H]1CC2=CC(=O)CC[C@]2(C)[C@H]2CC[C@@]3(C)[C@@H](CC[C@@]34CCC(=O)O4)[C@H]12
measured number: 6.39
//
compound: Nc1ccn(C[C@@H](CO)OCP(=O)(O)O)c(=O)n1
measured number: -2.8
//
compound: COC(=O)N/N=C/c1c[n+]([O-])c2ccccc2[n+]1[O-]
measured number: 0.87
//
compound: CC(=O)NNC(=O)N1Cc2ccccc2Oc2ccc(Cl)cc21
measured number: -2.14

###

System: Vero E6 infected with SARS-CoV-2
Experiment: inhibition of SARS-CoV-2 cytopathic effect; higher = more antiviral protection, active = above 15
Conditions: 8.33 nM; 48 h
// values below are reported inhibition of SARS-CoV-2 cytopathic effect
endpoint: inhibition of SARS-CoV-2 cytopathic effect (%)

molecule: CC1(C)CC(=O)c2c(C(F)(F)F)nn(-c3ccc(C(N)=O)c(N[C@H]4CC[C@H](OC(=O)CN)CC4)c3)c2C1
measured number: 1.43

molecule: CC(C)(CO)[C@@H](O)C(=O)NCCC(=O)O
measured number: -0.18

molecule: O=C(N/N=C/c1ccc([N+](=O)[O-])o1)c1cc([N+](=O)[O-])cc([N+](=O)[O-])c1O
measured number: 3.21

molecule: CC(=O)N(C)c1cccc(-c2ccnc3c(C(=O)c4cccs4)cnn23)c1
measured number: 0.82

molecule: CCCCCCCC/C=C\CCCCCCCC(=O)NCCO [oleoylethanolamide]
measured number: -0.89

###

Test system: Vero E6 infected with SARS-CoV-2
Assay: inhibition of SARS-CoV-2 cytopathic effect; higher = more antiviral protection, active = above 15
Conditions: 1 nM; 48 h
endpoint: inhibition of SARS-CoV-2 cytopathic effect (%)

compound: O=C(O)CC(S)C(=O)O (centres undefined)
units text: %
measured number: 0.69
--
compound: O[C@@H]1[C@H](O)[C@@H](CCl)O[C@H]1n1cnc2c(NC3CC4CCC3C4)ncnc21 (mixture of isomers) [5'-chloro-5'-deoxy-ENBA-(+/-)]
units text: %
measured number: -4.47
--
compound: CC[C@H](Nc1ncnc2[nH]cnc12)c1nc2cccc(F)c2c(=O)n1-c1ccccc1
units text: %
measured number: -1.64
--
compound: COc1cc(C(=S)N2CCOCC2)cc(OC)c1OC
units text: %
measured number: -6.81
--
compound: C[C@@H]1COCCN1c1cc(C2([S@](C)(=N)=O)CC2)nc(-c2ccnc3[nH]ccc23)n1
units text: %
measured number: -1.91
--
compound: O=C(/C=C/c1ccc(CN(CCO)CCc2c[nH]c3ccccc23)cc1)NO
units text: %
measured number: -2.47
--
compound: COC(=O)[C@@H](N)CS
units text: %
measured number: 2.04
--
compound: CCCS(=O)(=O)Nc1ccc(F)c(C(=O)c2c[nH]c3ncc(Cl)cc23)c1F
units text: %
measured number: 0.68
--
compound: Cc1cc(NC(=O)Nc2ccc(N(C)C)cc2)c2cc(F)cc(F)c2n1
units text: %
measured number: -0.11

###

Test system: Vero E6 infected with SARS-CoV-2
Test: inhibition of SARS-CoV-2 cytopathic effect; higher = more antiviral protection, active = above 15
Details: 8.33 nM; 48 h
endpoint: inhibition of SARS-CoV-2 cytopathic effect (%)

molecule: CCc1ccc(CCOc2ccc(CC3SC(=O)NC3=O)cc2)nc1 (stereo not drawn)
assay target: Vero E6 infected with SARS-CoV-2
measured number: 1.34
--
molecule: N[C@H](C(=O)O)c1ccc(O)c(C(=O)O)c1 [3-carboxy-4-hydroxyphenylglycine-(S)]
assay target: Vero E6 infected with SARS-CoV-2
measured number: 0.105
--
molecule: CCCCCCOC(=O)NC(=N)c1ccc(NCc2nc3cc(C(=O)N(CCC(=O)OCC)c4ccccn4)ccc3n2C)cc1 [dabigatran-etexilate]
assay target: Vero E6 infected with SARS-CoV-2
measured number: 2.6
--
molecule: Cc1cc(Nc2ncnc3ccc(NC4=NC(C)(C)CO4)cc23)ccc1Oc1ccn2ncnc2c1
assay target: Vero E6 infected with SARS-CoV-2
measured number: 0.54
--
molecule: CC(C)(C)C[C@@H]1N[C@@H](C(=O)N[C@H]2CC[C@H](O)CC2)[C@H](c2cccc(Cl)c2F)[C@]12C(=O)Nc1cc(Cl)ccc12
assay target: Vero E6 infected with SARS-CoV-2
measured number: -2.43
--
molecule: OCCN1CCN(CC/C=C2/c3ccccc3Sc3ccc(Cl)cc32)CC1
assay target: Vero E6 infected with SARS-CoV-2
measured number: -3.42
--
molecule: CCOC(=O)[C@H](CCc1ccccc1)N[C@@H](C)C(=O)N1[C@H](C(=O)O)C[C@H]2CCCC[C@@H]21
assay target: Vero E6 infected with SARS-CoV-2
measured number: -1.62
--
molecule: NC(CO)(CO)CO
assay target: Vero E6 infected with SARS-CoV-2
measured number: -2.53
